Data origin: patent US11767296B2

pIC50: −log10 of the molar value.
Below are pIC50 values recorded for CSF-1R (Homo sapiens).

>>> recorded_measurement("C[C@@H](Oc1cc(Cl)cnc1N)c1cccc(NC(=O)c2ccc3c(c2)S(=O)(=O)CC3)c1 [Compound 134]")
"≥ 7.30"

Hi there! I need pIC50 for each item below, if you can.
1. Cc1ccc(C(=O)Nc2cccc([C@@H](C)Oc3cc(Cl)cnc3N)c2)cc1C [Compound 132]
2. Cc1cccc(NC(=O)Nc2cccc(Oc3cc(Cl)cnc3N)c2)c1 [Compound 331]

Given back:
≥ 7.30
6.30 to 7.29

----------
Provide the recorded IC50 for the entries that follow.
# STUDY_SYSTEM: CSF-1R (Homo sapiens)
# Sequence (P07333 20-972): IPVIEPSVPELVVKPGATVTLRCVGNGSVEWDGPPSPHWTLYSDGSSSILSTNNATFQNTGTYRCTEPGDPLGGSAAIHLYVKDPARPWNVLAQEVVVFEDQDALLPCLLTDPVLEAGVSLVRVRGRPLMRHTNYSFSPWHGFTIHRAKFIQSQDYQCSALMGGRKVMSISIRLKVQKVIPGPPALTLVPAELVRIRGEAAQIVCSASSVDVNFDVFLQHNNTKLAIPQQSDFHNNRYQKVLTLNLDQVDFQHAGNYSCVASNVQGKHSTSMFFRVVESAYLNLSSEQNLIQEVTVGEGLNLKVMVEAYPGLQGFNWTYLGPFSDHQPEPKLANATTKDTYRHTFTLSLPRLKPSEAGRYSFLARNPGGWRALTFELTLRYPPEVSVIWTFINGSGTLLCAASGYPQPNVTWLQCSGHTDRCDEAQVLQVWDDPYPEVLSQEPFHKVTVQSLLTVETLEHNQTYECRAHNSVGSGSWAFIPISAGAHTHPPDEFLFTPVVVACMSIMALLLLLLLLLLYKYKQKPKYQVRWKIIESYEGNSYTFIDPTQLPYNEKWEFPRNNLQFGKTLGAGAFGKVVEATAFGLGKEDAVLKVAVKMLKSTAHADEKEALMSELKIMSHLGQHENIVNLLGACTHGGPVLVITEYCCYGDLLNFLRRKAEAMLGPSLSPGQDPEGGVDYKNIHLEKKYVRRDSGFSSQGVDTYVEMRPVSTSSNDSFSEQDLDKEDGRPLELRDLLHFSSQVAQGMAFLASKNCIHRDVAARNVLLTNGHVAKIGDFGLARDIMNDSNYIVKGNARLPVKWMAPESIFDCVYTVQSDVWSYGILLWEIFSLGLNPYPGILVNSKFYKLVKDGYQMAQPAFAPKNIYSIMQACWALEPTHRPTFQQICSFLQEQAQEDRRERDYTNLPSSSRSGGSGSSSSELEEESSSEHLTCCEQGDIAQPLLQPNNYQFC

Known IC50 results, listed for orientation:
>>> recorded_measurement("Nc1ncc(Cl)cc1OCc1cccc(NC(=O)c2cccc(Cl)c2)c1")
"≤ 50 nM"
>>> recorded_measurement("CSc1cccc(C(=O)Nc2cccc([C@@H](C)Oc3cc(-c4cnn(C)c4)cnc3N)c2)c1")
"≤ 50 nM"

Hi there! I need IC50 for each item below, if you can.
1. COc1cccc(C(=O)Nc2cc(C(C)Oc3cc(Cl)cnc3N)ccc2F)c1 (stereo not shown)
2. CNc1ncc(Cl)cc1OCc1cccc(NC(=O)c2cccc(C)c2)c1
3. Cc1cccc(C(=O)Nc2cccc(Oc3cc(Cl)cnc3N)c2)c1
4. C[C@@H](Oc1cc(-c2cccnc2)cnc1N)c1cccc(NC(=O)c2cccc(N(C)C)c2)c1
5. C[C@@H](Oc1cc(Cl)cnc1N)c1cccc(NC(=O)c2cccc(S(C)(=O)=O)c2)c1

Given back:
51 to 500 nM
51 to 500 nM
51 to 500 nM
≤ 50 nM
≤ 50 nM

----------
Below are pIC50 values recorded for CSF-1R (Homo sapiens).
pIC50: −log10 of the molar value.

Known pIC50 results, listed for orientation:
>>> recorded_measurement("Cn1cc(-c2cnc(N)c(Oc3cccc(NC(=O)Nc4ccc(Cl)c(C(F)(F)F)c4)c3)c2)cn1")
"≥ 7.30"
>>> recorded_measurement("Cc1ccc(C(=O)Nc2cccc([C@@H](C)Oc3cc(-c4cccnc4)cnc3N)c2)cc1N(C)C")
"≥ 7.30"
>>> recorded_measurement("Cc1ccc(C(=O)Nc2cccc([C@@H](C)Oc3cc(-c4cnn(C)c4)cnc3N)c2)cc1N(C)C")
"≥ 7.30"
>>> recorded_measurement("CSc1cc(C(=O)Nc2cccc([C@@H](C)Oc3cc(-c4cnn(C)c4)cnc3N)c2)ccc1C")
"≥ 7.30"
>>> recorded_measurement("C[C@@H](Oc1cc(Cl)cnc1N)c1cccc(NC(=O)c2cccc(CN3CCN(C)CC3)c2)c1")
"5.00 to 6.30"
>>> recorded_measurement("Cc1cccc(NC(=O)c2cccc([C@H](C)Oc3cc(Cl)cnc3N)c2)c1")
"6.30 to 7.29"
>>> recorded_measurement("CSc1ccc(C(=O)Nc2cccc([C@@H](C)Oc3cc(-c4cnn(C)c4)cnc3N)c2)cc1")
"≥ 7.30"
>>> recorded_measurement("C[C@@H](Oc1cc(Cl)cnc1N)c1cccc(NC(=O)c2cccc(C3CC3)c2)c1")
"≥ 7.30"

Now look at this one.
Asked: # get_value(readout= pIC50, system= CSF-1R (Homo sapiens)) for C[C@H](Oc1cc(Cl)cnc1N)c1cccc(NC(=O)c2cccc(Cl)c2)c1
Given back: ≥ 7.30
